Data provenance is the supplement of paper PMC9233669.

test system: biotinyl-Val-oxazolone; assay: self-aminoacylation, catalytic enhancement (BVO) (fold over background); higher = more active; k-Seq, kA / k0A0; sequences stand for … in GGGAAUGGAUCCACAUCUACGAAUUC…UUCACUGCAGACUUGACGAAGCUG
Fewer inactive variants are shown than the library holds.
Label false if self-aminoacylation falls below 1; label true in every other case.

1) AUUUCCCUGGUCUUCGAGUGA [Fam2.1 aminoacylation ribozyme variant]; true
2) CCACACUUCAAACAAGCGGUC [Fam1B.1 aminoacylation ribozyme variant]; false
3) AUUACCCUGGCCAUCGAGUCA [Fam2.1 aminoacylation ribozyme variant]; false
4) CUACUUCAAAUAAACGGUCUG [Fam1A.1 aminoacylation ribozyme variant]; false
5) AUUCCCCUGGGCAUCGAGUGA [Fam2.1 aminoacylation ribozyme variant]; true

Ask | Hi, just wondering whether UCACACUCCAAGCAAUCGGUC [Fam1B.1 aminoacylation ribozyme variant] shows self-aminoacylation of 1 or higher.
Reply | true

Ask | Hello, I need to know if GAGUUAGCUAAUAGUCGCAAG [Fam3.1 aminoacylation ribozyme variant] has measured self-aminoacylation not below 1. Thanks!
Reply | true

Ask | Dear colleague, could you confirm whether CCUCACUCCAAGCAAUCGGUC [Fam1B.1 aminoacylation ribozyme variant] has self-aminoacylation at or above 1?
Reply | false

Ask | Is self-aminoacylation at least 1? Consider AUUCAACUAGGUCAUCGGUUG [Fam2.2 aminoacylation ribozyme variant]
Reply | false

Ask | Check if self-aminoacylation >= 1 (inclusive). Item: ACACACUUAAAGCAAUCGGUC [Fam1B.1 aminoacylation ribozyme variant]
Reply | true

###

test system: biotinyl-Met-oxazolone; assay: self-aminoacylation, catalytic enhancement (BMO) (fold over background); higher = more active; k-Seq, kA / k0A0; sequences stand for … in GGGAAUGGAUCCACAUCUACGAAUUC…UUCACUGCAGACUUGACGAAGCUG
Variants at the floor of the assay were thinned out.
parameter: self-aminoacylation

1) CCCCACUUCAGGCAAUCGGUC [Fam1B.1 aminoacylation ribozyme variant]; 2.35
2) AUUACCCUUCUCAUCGAGUGA [Fam2.1 aminoacylation ribozyme variant]; 6.6
3) AUUACCCUAGGCAUCGAGUGA [Fam2.1 aminoacylation ribozyme variant]; 5.3
4) ACUACCCUGGUCAUCGAGUGA [Fam2.1 aminoacylation ribozyme variant]; 44.3
5) GUACUUCAAACUAUCGGUCUG [Fam1A.1 aminoacylation ribozyme variant]; 1.29
6) AUUACCCUGGUGAUAGAGUGA [Fam2.1 aminoacylation ribozyme variant]; 9.04

Ask | Please report the measured self-aminoacylation for CCACACUUCAAGCAAUCAGCC [Fam1B.1 aminoacylation ribozyme variant]
Reply | 0.884

Ask | Identify self-aminoacylation associated with the sequence AUUCAACUAGGUCCUCGGGUG [Fam2.2 aminoacylation ribozyme variant]
Reply | 5.22

###

test system: biotinyl-Met-oxazolone; assay: self-aminoacylation, catalytic enhancement (BMO) (fold over background); higher = more active; k-Seq, kA / k0A0; sequences stand for … in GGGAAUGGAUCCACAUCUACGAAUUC…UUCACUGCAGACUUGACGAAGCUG
Variants at the floor of the assay were thinned out.
Rule: self-aminoacylation of 1 or more gives Yes; anything lower gives No.

1. AUUACCCUGGUCAUCGCGUGU [Fam2.1 aminoacylation ribozyme variant]; Yes
2. AAGUUGGCUAAUCGUCGCAAG [Fam3.1 aminoacylation ribozyme variant]; Yes
3. CUACUUCAAACGAUCGAUCUG [Fam1A.1 aminoacylation ribozyme variant]; No
4. AUGCACCUAGGUCAUCGGCUG [Fam2.2 aminoacylation ribozyme variant]; Yes

Ask | Check if self-aminoacylation >= 1 (inclusive). Item: CUACUUCGAACACUCGGUCUG [Fam1A.1 aminoacylation ribozyme variant]
Reply | Yes

Ask | Given CUACCUCAAACAAUUGGUCUG [Fam1A.1 aminoacylation ribozyme variant] , state whether its self-aminoacylation is at least 1.
Reply | Yes

Ask | Does the sequence UUUCACCUAAGUCAUCGGGUG [Fam2.2 aminoacylation ribozyme variant] have recorded self-aminoacylation that is 1 or more?
Reply | Yes

Ask | Say whether CUACUUCUAACAAUCGGUCUC [Fam1A.1 aminoacylation ribozyme variant] shows self-aminoacylation of 1 or more.
Reply | No

Ask | Threshold query (self-aminoacylation >= 1) on AUUCACCUAGGUCUCCGGGUG [Fam2.2 aminoacylation ribozyme variant]
Reply | Yes

Ask | Check the entry CUACUUGGAACAAUCGGUCUG [Fam1A.1 aminoacylation ribozyme variant] : does self-aminoacylation equal or exceed 1?
Reply | No

Ask | Assess whether reported self-aminoacylation for AAGUUUGCCAAUAGUCGCAAU [Fam3.1 aminoacylation ribozyme variant] sits at 1 or higher.
Reply | Yes

Ask | Exam item: decide whether the reported self-aminoacylation for CUACUUCAAACAAUCGGUCCA [Fam1A.1 aminoacylation ribozyme variant] is at least 1.
Reply | No

Ask | Evaluate AUAACCCUCGUCAUCGAGUGA [Fam2.1 aminoacylation ribozyme variant] : self-aminoacylation at minimum 1?
Reply | Yes

###

system: biotinyl-Trp-oxazolone; test: self-aminoacylation, catalytic enhancement (BWO) (fold over background); higher = more active; k-Seq, kA / k0A0; sequences stand for … in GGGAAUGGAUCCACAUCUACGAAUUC…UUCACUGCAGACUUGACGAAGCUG
Variants at the floor of the assay were thinned out.
parameter: self-aminoacylation

1. CUUACCCCGGUCAUCGAGUGA [Fam2.1 aminoacylation ribozyme variant]; 6.76

Ask | For biotinyl-Trp-oxazolone, give the measured self-aminoacylation of the entry GUACUUCAAACAAUCGUUCUG [Fam1A.1 aminoacylation ribozyme variant]
Reply | 2.37

Ask | Report value: self-aminoacylation, system: biotinyl-Trp-oxazolone, sequence: CUACUUCAGACAAUCGAUCUG [Fam1A.1 aminoacylation ribozyme variant]
Reply | 0.493

Ask | Name the value of self-aminoacylation reported for CGACACUUCAAGCAGUCGGUC [Fam1B.1 aminoacylation ribozyme variant] when tested on biotinyl-Trp-oxazolone.
Reply | 1.74

###

Catalogue of sequences with associated self-aminoacylation
system: biotinyl-Trp-oxazolone; test: self-aminoacylation, catalytic enhancement (BWO) (fold over background); higher = more active; k-Seq, kA / k0A0; sequences stand for … in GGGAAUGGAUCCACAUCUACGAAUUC…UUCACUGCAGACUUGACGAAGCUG
Variants at the floor of the assay were thinned out.
Please respond with just the number, no unit label.

Ask | Please tell me the measured self-aminoacylation for CUACGUCAAGCAAUCGGUCUG [Fam1A.1 aminoacylation ribozyme variant] ; system: biotinyl-Trp-oxazolone.
Reply | 1.17

###

system: biotinyl-Met-oxazolone; assay: self-aminoacylation, catalytic enhancement (BMO) (fold over background); higher = more active; k-Seq, kA / k0A0; sequences stand for … in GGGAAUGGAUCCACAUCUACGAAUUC…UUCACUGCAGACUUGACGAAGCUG
Fewer inactive variants are shown than the library holds.
parameter: self-aminoacylation
The answer should be written as a number, with no unit following it.

1. CGGUUUGCUAAUAGUCGCAAG [Fam3.1 aminoacylation ribozyme variant]; 1.17
2. AAGUUUGUUAAUAGUCGCAAU [Fam3.1 aminoacylation ribozyme variant]; 1.5

Ask | Look up self-aminoacylation of AUUACACUGGUCAUCGAGUGA [Fam2.1 aminoacylation ribozyme variant] and report it.
Reply | 5.44

Ask | Provide self-aminoacylation value for the following sequence: AUGCACCUAGUUCAUCGGGUG [Fam2.2 aminoacylation ribozyme variant]
Reply | 2.73

Ask | Read off the recorded self-aminoacylation for CAUCACUUCAAGCAAUCGGUC [Fam1B.1 aminoacylation ribozyme variant]
Reply | 1.09

###

system: biotinyl-Trp-oxazolone; test: self-aminoacylation, catalytic enhancement (BWO) (fold over background); higher = more active; k-Seq, kA / k0A0; sequences stand for … in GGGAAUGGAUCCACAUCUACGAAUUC…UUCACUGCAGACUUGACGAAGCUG
Variants at the floor of the assay were thinned out.
self-aminoacylation below 3 gives condition not met; self-aminoacylation at or above it gives condition met.

Example entries and their recorded answers appear below.
1. CCACACUUUAAGGAAUCGGUC [Fam1B.1 aminoacylation ribozyme variant]; condition not met
2. AUUAGCCUGCUCAUCGAGUGA [Fam2.1 aminoacylation ribozyme variant]; condition met
3. AUUCACUUAGGUAAUCGGGUG [Fam2.2 aminoacylation ribozyme variant]; condition not met
4. AAGUAUGCGAAUAGUCGCAAG [Fam3.1 aminoacylation ribozyme variant]; condition not met

Next:
Ask | Is self-aminoacylation for GUUCGCCUAGGUCAUCGGGUG [Fam2.2 aminoacylation ribozyme variant] at or above 3?
Reply | condition met

###

system: biotinyl-Met-oxazolone; assay: self-aminoacylation, catalytic enhancement (BMO) (fold over background); higher = more active; k-Seq, kA / k0A0; sequences stand for … in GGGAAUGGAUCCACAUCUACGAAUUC…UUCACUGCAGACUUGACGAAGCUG
Variants at the floor of the assay were thinned out.
self-aminoacylation of 3 or higher: Yes. Under 3: No.

Examples from the recorded data:
1) AAGUUUGCUCAUAGUCCCAAG [Fam3.1 aminoacylation ribozyme variant]; No
2) AUUACCCUCGUCAUCGAGUAA [Fam2.1 aminoacylation ribozyme variant]; No
3) AUUACCCUGGUCACCGAGUGA [Fam2.1 aminoacylation ribozyme variant]; Yes
4) AAGUUUUCUAAUAGUCGCAGG [Fam3.1 aminoacylation ribozyme variant]; No
5) ACACACUUCAAACAAUCGGUC [Fam1B.1 aminoacylation ribozyme variant]; No

Ask | Evaluate AAGUUUGCGAAUAGUCGCAGG [Fam3.1 aminoacylation ribozyme variant] : self-aminoacylation at minimum 3?
Reply | No

Ask | Quick check: does AAUCACUUAGGUCAUCGGGUG [Fam2.2 aminoacylation ribozyme variant] have self-aminoacylation greater than or equal to 3?
Reply | Yes

Ask | Has CCACUUCAAACCAUCGGUCUG [Fam1A.1 aminoacylation ribozyme variant] a recorded self-aminoacylation greater than or equal to 3?
Reply | No

Ask | Assess whether reported self-aminoacylation for CCACACGUCAGGCAAUCGGUC [Fam1B.1 aminoacylation ribozyme variant] sits at 3 or higher.
Reply | No

Ask | Check if self-aminoacylation >= 3 (inclusive). Item: AAGUUUGCUAAUAGUGGCAAG [Fam3.1 aminoacylation ribozyme variant]
Reply | No

Ask | Say whether AUUCAGCUAGGUAAUCGGGUG [Fam2.2 aminoacylation ribozyme variant] shows self-aminoacylation of 3 or more.
Reply | Yes

Ask | Form field: self-aminoacylation at least 3? Entry: AAGUUUGCUAAUUGUCGCCAG [Fam3.1 aminoacylation ribozyme variant]
Reply | No

Ask | Has UUACUUCAAAGAAUCGGUCUG [Fam1A.1 aminoacylation ribozyme variant] a recorded self-aminoacylation greater than or equal to 3?
Reply | No

Ask | Reported self-aminoacylation at or above 3? CUCCUUCAAACAUUCGGUCUG [Fam1A.1 aminoacylation ribozyme variant]
Reply | No

Ask | Can AUUGACCUAGGUCAACGGGUG [Fam2.2 aminoacylation ribozyme variant] be said to have self-aminoacylation at or above 3?
Reply | No

Ask | API: above_or_equal(metric=self-aminoacylation, cutoff=3) for item CCACACUCCAAGCACUCGGUC [Fam1B.1 aminoacylation ribozyme variant]
Reply | No

Ask | Entry CUACUUCAAACAAACGGCCUG [Fam1A.1 aminoacylation ribozyme variant] : is its self-aminoacylation no less than 3?
Reply | No

Ask | Quick check: does CCACAUUUCAAGCAAUUGGUC [Fam1B.1 aminoacylation ribozyme variant] have self-aminoacylation greater than or equal to 3?
Reply | No

Ask | Exam item: decide whether the reported self-aminoacylation for AUUACCCUGCUCAUCGAGCGA [Fam2.1 aminoacylation ribozyme variant] is at least 3.
Reply | No

Ask | Check the entry AUUACCCUGUUCAUCGAGUUA [Fam2.1 aminoacylation ribozyme variant] : does self-aminoacylation equal or exceed 3?
Reply | No

Ask | Reported self-aminoacylation reaches at least 3 for AGUACCCUGGUCUUCGAGUGA [Fam2.1 aminoacylation ribozyme variant] ?
Reply | Yes

Ask | Please tell me: is the sequence AUUCACAUGGGUCAUCGGGUG [Fam2.2 aminoacylation ribozyme variant] at or over 3 in terms of self-aminoacylation?
Reply | Yes
